# Target of assay: hACSL5 (Homo sapiens (Human))
# Sequence (Q9ULC5 33-683): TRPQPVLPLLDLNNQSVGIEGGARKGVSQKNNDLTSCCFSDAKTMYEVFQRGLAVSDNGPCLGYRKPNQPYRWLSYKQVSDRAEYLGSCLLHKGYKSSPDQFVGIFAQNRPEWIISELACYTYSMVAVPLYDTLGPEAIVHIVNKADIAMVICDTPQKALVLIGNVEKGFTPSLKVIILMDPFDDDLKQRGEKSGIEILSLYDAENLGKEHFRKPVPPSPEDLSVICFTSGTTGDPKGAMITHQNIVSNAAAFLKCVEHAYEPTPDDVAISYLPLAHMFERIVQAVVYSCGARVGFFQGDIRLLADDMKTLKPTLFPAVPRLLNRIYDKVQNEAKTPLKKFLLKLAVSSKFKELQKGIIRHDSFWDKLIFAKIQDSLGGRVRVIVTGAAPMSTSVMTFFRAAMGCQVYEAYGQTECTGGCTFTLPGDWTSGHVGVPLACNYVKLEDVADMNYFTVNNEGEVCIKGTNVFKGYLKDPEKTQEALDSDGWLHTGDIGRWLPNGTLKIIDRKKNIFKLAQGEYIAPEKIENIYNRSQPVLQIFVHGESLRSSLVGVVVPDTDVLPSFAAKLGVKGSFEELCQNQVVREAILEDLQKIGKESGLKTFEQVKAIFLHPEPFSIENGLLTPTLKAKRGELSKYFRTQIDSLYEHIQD
# Assay notes: Human ACSL5 coupled enzyme Amplex Red assay
# Format: biochemical
# Condition label: read-out: hACSL5 IC50
Recorded measurements of IC50, one per entry

Some solved entries appear below for comparison.
Compound	IC50
CC[C@@H](Oc1ccc(C(=O)NS(=O)(=O)N2CCC(OC3CN(C)C3)CC2)c(F)c1F)c1ccc(OCC2CC2)cn1	100 to 500 nM
CC[C@@H](Oc1ccc(C(=O)NS(=O)(=O)N2CCC(OC3CCN(C)CC3)CC2)cc1C(F)(F)F)c1ccc(Oc2ccccn2)cn1	< 100 nM
CC[C@@H](Oc1ccc(C(=O)NS(=O)(=O)c2ccc(OCCN(C)C)cc2)c(F)c1F)c1cc(Oc2ccccn2)ccn1	< 100 nM
CC[C@@H](Oc1ccc(C(=O)NS(=O)(=O)N2CCN(CC)CC2)c(F)c1F)c1ccc(OCC2CC2)cn1	< 100 nM
CC(Oc1ccc(C(=O)NS(=O)(=O)c2ccc(CN)cc2)cc1C(F)(F)F)c1cccc(Oc2cccnc2)c1 (centres unmarked)	< 100 nM

Input CC[C@@H](Oc1ccc(C(=O)NS(=O)(=O)N2CCCN(C)CC2)c(F)c1F)c1ccc(OCC2CC2)cn1 , output reported IC50. 100 to 500 nM

Input CC[C@@H](Oc1ccc(C(=O)NS(=O)(=O)c2ccc(OC3CCN(CC4CC4)CC3)cc2)c(F)c1F)c1ccc(OCC2CC2)cn1 , output reported IC50. < 100 nM

Input CC[C@@H](Oc1ccc(C(=O)NS(=O)(=O)c2ccc(OC3CCN(CC(F)F)CC3)cc2)c(F)c1F)c1ccc(OCC2CC2)cn1 , output reported IC50. < 100 nM

Input CC[C@@H](Oc1ccc(C(=O)NS(=O)(=O)c2ccc(CN3CCN(CC)CC3)nc2)c(F)c1F)c1ccc(OCC2CC2)cn1 , output reported IC50. < 100 nM

Input CC(Oc1ccc(C(=O)NS(=O)(=O)c2ccc(CN)cc2)cc1C(F)(F)F)c1cccc(Oc2ccsc2)c1 (centres unmarked) , output reported IC50. < 100 nM

Input CC[C@@H](Oc1ccc(C(=O)NS(=O)(=O)N2CCC(OC3CN(C)C3)CC2)c(F)c1F)c1ccc(Oc2ccccn2)cn1 , output reported IC50. < 100 nM

Input CC[C@@H](Oc1ccc(C(=O)NS(=O)(=O)c2ccc(OC3CCN(C)CC3)cn2)c(F)c1F)c1ccc(OCC2CC2)cn1 , output reported IC50. < 100 nM

Input CC(COc1ccc(C(=O)NS(=O)(=O)c2ccc(CN)cc2)cc1C(F)(F)F)c1cccc(Oc2ccccc2)c1 (centres unmarked) , output reported IC50. 100 to 500 nM

Input CC[C@@H](Oc1ccc(C(=O)NS(=O)(=O)N2CCN(C3CCC3)CC2)c(F)c1F)c1ccc(OCC2CC2)cn1 , output reported IC50. < 100 nM

Input CC[C@@H](Oc1ccc(C(=O)NS(=O)(=O)N2CCN(C)C(C)(C)C2)c(F)c1F)c1ccc(OCC2CC2)cn1 , output reported IC50. < 100 nM

Input CC[C@@H](Oc1ccc(C(=O)NS(=O)(=O)c2ccc(OCCN3CC[C@H](F)C3)cc2)c(F)c1F)c1ccc(OCC2CC2)cn1 , output reported IC50. < 100 nM

Input CC[C@@H](Oc1ccc(C(=O)NS(=O)(=O)C(C)(C)CN(C)C)c(F)c1F)c1ccc(OCC2CC2)cn1 , output reported IC50. 100 to 500 nM

Input CC[C@@H](Oc1ccc(C(=O)NS(=O)(=O)N2CC3=C(CN(C)C3)C2)c(F)c1F)c1ccc(OCC2CC2)cn1 , output reported IC50. 100 to 500 nM

Input CC[C@@H](Oc1ccc(C(=O)NS(=O)(=O)c2ccc(OC3CCNCC3)cc2)c(F)c1F)c1ccc(OCC2CC2)cn1 , output reported IC50. < 100 nM

Input CC[C@@H](Oc1ccc(C(=O)NS(=O)(=O)N2CCN(C3CC3)CC2)c(F)c1F)c1ccc(Oc2ccccn2)cn1 , output reported IC50. < 100 nM
